assay: NCI Yeast Anticancer Drug Screen. Data for the bub3 strain (AID 167); conditions: S. cerevisiae bub3 mutant strain, at 50.0 µM, hits give high values
This is part of a sample that, as a whole, favours compounds with a hit. Of some 79,000 tested, about 15% had one in any assay.
Rule: True for growth inhibition not less than 10%, False for anything less.

Given `CCCCCOC(=S)S` , state whether its growth inhibition is at least 10%.
True

State whether the measured growth inhibition reaches 10%, counting equality as reaching it, for CC(C)(C)OC(=O)CC(NC(=O)OC(C)(C)C)C(=O)N[C@@H]1CCCC[C@H]1C(=O)OCc1ccccc1 (stereo partly specified)
True

Is it the case that `C=C(C)C(=O)Nc1ccc(-n2[nH]c(C)c(N=Nc3ccc(N(C)C)cc3)c2=O)cc1` has growth inhibition reaching or exceeding 10%?
False

Quick check, growth inhibition >= 10%? `NC(=O)C(=CNc1nc(-c2ccc(Cl)c(Cl)c2)cs1)C(N)=O`
False

Confirm if growth inhibition reported for the molecule `COC(=O)/C=C/CCOS(C)(=O)=O` is 10% or above.
False

Does `O=S1(=O)c2ccc(cc2)N=CC=Nc2ccc1cc2` have a reported growth inhibition of at least 10%?
True
